- Target system: Growth hormone secretagogue receptor type 1 (Homo sapiens, UniProt Q92847)
- Sequence (Q92847 whole entry): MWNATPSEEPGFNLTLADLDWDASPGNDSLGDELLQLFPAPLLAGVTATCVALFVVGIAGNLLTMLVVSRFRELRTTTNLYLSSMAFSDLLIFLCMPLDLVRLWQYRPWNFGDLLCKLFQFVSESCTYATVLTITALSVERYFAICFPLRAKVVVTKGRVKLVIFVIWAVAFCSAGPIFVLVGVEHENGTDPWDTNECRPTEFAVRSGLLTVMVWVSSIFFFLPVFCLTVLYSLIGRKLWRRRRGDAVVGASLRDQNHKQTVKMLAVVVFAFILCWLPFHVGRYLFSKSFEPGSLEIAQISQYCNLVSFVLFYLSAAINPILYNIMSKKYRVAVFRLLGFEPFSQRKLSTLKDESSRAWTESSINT
- Protocol summary: Displacement of […] from SNAP-tagged human GHSR expressed in HEK293T cells after 3 hrs by HTRF assay
Non-standard residues stand in square brackets, D forms with d. Residues, ends and D or L forms follow the SMILES beside them. Nle = CCCC[C@H](N)C(=O)O
Item-by-item account of pKi
pKi here is simply -log10 of the concentration when that concentration is written in mol/L.

Worked cases, answers included:
compound="CCCC[C@H](N)C(=O)N[C@H](C(=O)N1CCC[C@H]1C(=O)N[C@@H](Cc1ccccc1)C(=O)N[C@@H](Cc1c[nH]c2ccccc12)C(=O)N[C@@H](CCCNC(=N)N)C(N)=O)[C@@H](C)O (H-[Nle]TPFWR-NH2)" obs_value=7.26
compound="CCCC[C@H](N)C(=O)N[C@H](C(=O)N1CCC[C@H]1C(=O)N[C@@H](Cc1ccccc1)C(=O)N[C@@H](Cc1c[nH]c2ccccc12)C(=O)N[C@@H](CCCNC(=N)N)C(=O)NCC(=O)N[C@H](C(=O)N[C@@H](CO)C(=O)N[C@@H](CC(C)C)C(=O)N[C@@H](CCCNC(=N)N)C(=O)N1CCC[C@H]1C(=O)N[C@H](C(=O)NCC(=O)O)[C@@H](C)CC)C(C)C)[C@@H](C)O (H-[Nle]TPFWRGVSLRPIG-OH)" obs_value=8.44
compound="CCCC[C@H](N)C(=O)N[C@H](C(=O)N1CCC[C@H]1C(=O)N[C@@H](Cc1ccccc1)C(=O)N[C@@H](Cc1c[nH]c2ccccc12)C(=O)N[C@@H](CCCNC(=N)N)C(=O)NCC(=O)N[C@H](C(=O)N[C@@H](CO)C(=O)N[C@@H](CC(C)C)C(=O)N[C@@H](CCCNC(=N)N)C(=O)N1CCC[C@H]1C(=O)N[C@H](C(=O)NCC(N)=O)[C@@H](C)CC)C(C)C)[C@@H](C)O (H-[Nle]TPFWRGVSLRPIG-NH2)" obs_value=8.52

For the next question, use this compound.
Under Growth hormone secretagogue receptor type 1 (Homo sapiens, UniProt Q92847), report pKi for CCCC[C@H](N)C(=O)N[C@H](C(=O)N1CCC[C@H]1C(=O)N[C@@H](Cc1ccccc1)C(=O)N[C@@H](Cc1c[nH]c2ccccc12)C(=O)N[C@@H](CCCNC(=N)N)C(=O)NCC(=O)N[C@H](C(=O)N[C@@H](CO)C(=O)N[C@@H](CC(C)C)C(N)=O)C(C)C)[C@@H](C)O (H-[Nle]TPFWRGVSL-NH2)
8.47
